- target.or.system: T1, human AMHRII (anti-Mullerian hormone receptor type 2) (human, UniProt Q16671 18-573)
- T1 construct: whole, on cells; also called AMHR2; human AMHR2
- T1 sequence (looked up): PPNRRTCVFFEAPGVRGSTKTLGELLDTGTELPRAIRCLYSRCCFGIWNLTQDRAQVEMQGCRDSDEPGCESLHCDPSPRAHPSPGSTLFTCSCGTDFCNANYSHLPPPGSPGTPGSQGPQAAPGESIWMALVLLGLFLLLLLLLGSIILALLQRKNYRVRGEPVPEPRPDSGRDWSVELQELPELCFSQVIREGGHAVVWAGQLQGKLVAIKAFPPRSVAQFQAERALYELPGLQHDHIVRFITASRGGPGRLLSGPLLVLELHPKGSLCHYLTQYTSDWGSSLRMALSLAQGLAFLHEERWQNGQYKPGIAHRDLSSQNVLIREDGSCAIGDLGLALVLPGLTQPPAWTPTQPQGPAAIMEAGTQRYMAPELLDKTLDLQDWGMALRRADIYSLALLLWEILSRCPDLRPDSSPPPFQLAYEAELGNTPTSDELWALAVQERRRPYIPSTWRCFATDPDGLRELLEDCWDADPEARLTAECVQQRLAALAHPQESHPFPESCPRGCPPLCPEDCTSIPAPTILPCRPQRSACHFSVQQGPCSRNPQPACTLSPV
- assay.method.text: FACS on CHO-K1 cells over-expressing human AMHR2
- Description: CHO-K1 cells over-expressed AMHR2 were harvested from flasks. 100 μl of 1×10⁶ cells/ml of cells were incubated with the humanized antibodies in 3-fold serial dilutions starting from 300 nM to 0.001 nM for 30 minutes on ice. After being washed with 200 μl of FACS buffer twice, cells were incubated with secondary antibody for 30 minutes on ice. Cells were washed with 200 μl of FACS buffer twice and analyzed by FACS.
measured.parameter: pEC50
The value called pEC50 is obtained by taking minus log10 of the concentration in mol/L.

# input Name the reported pEC50 value associated with the binder 31D9B3 H2L3 hIgG1 (antibody, V domains shown, Humanized, human IgG1; also called 31D9B3 H2L3 hlgG1) VH: QVQLVQSGAEVVKPGASVKVSCKASGYTFTDYWVSWVRQAPGQGLEWIGEIYPKNGVSNFNEKFKGRVTMTVDTSTSTAYMELRSLRSDDTAVYYCTRQRDYWGQGTLVTVSS VL: DVVMTQSPLSLPVTLGQPASISCRSSQSLEYGDGYTYLEWYLQRPGQSPRLLIYGVSNRFSGVPDRFIGSGSGTDFTLKISRVEAEDVGVYYCFQATHDPNTFGAGTKLEIK
# output 8.89

# input Name the reported pEC50 value associated with the binder 31D9B3 H1L4 hIgG1 (antibody, V domains shown, Humanized, human IgG1; also called 31D9B3 H1L4 hlgG1) VH: QVQLVQSGAEVKKPGASVKVSCKASGYTFTDYWVSWVRQAPGQGLEWMGEIYPKNGVSNFNEKFKGRVTMTTDTSTSTAYMELRSLRSDDTAVYYCARQRDYWGQGTLVTVSS VL: DVVLTQSPLSLPVTLGQPASISCRSSQSLEYGDGYTYLEWYLQRPGQSPQLLIYGVSNRFSGVPDRFIGSGSGTDFTLKISRVEPEDVGVYYCFQATHDPNTFGAGTKLEIK
# output 8.85

# input Name the reported pEC50 value associated with the binder 31D9B3 H1L2 hIgG1 (antibody, V domains shown, Humanized, human IgG1; also called 31D9B3 H1L2 hlgG1; 31D9B3 VH1-VL2 hlgG1) VH: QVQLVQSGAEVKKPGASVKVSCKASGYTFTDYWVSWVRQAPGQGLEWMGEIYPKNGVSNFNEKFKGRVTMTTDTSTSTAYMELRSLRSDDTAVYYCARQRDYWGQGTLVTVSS VL: DVVMTQSPLSLPVTLGQPASISCRSSQSLEYGDGYTYLEWYLQRPGQSPRLLIYGVSNRFSGVPDRFSGSGSGTDFTLKISRVEAEDVGVYYCFQATHDPNTFGQGTKLEIK
# output 8.83

Origin of the recorded values: patent US20240400701A1
